# test.target: T1, TNFR1 (Homo sapiens, UniProt P19438)
# T1 chain: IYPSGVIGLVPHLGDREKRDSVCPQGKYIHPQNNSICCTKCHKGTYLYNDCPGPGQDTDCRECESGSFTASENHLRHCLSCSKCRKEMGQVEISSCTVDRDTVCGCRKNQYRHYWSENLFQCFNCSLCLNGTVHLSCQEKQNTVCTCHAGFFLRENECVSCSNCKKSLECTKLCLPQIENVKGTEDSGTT
# measurement.notes: yeast display SC50
measure: apparent Kd (screen)
Give your result as the value with the unit written after it.

apparent Kd (screen) in this record for A17T (designed binder) MTLQELLREEALRRAETEAFRYALELLAEKFPEQKEYLLDLAEEIESQIRSLSGVDVEDVRKFLDKEWAWVKELLAEHPAELAEVEAARAARLAELRAEVEAKVAA : 0.446 nM

Memo: L96D (designed binder) MTLQELLREEALRRAEAEAFRYALELLAEKFPEQKEYLLDLAEEIESQIRSLSGVDVEDVRKFLDKEWAWVKELLAEHPAELAEVEAARAARLAEDRAEVEAKVAA , reported apparent Kd (screen): 0.539 nM

Reported apparent Kd (screen) of E99I (designed binder) MTLQELLREEALRRAEAEAFRYALELLAEKFPEQKEYLLDLAEEIESQIRSLSGVDVEDVRKFLDKEWAWVKELLAEHPAELAEVEAARAARLAELRAIVEAKVAA : 0.49 nM

Reported apparent Kd (screen) for M1Y (designed binder) YTLQELLREEALRRAEAEAFRYALELLAEKFPEQKEYLLDLAEEIESQIRSLSGVDVEDVRKFLDKEWAWVKELLAEHPAELAEVEAARAARLAELRAEVEAKVAA was 0.593 nM

Consider A98V (designed binder) MTLQELLREEALRRAEAEAFRYALELLAEKFPEQKEYLLDLAEEIESQIRSLSGVDVEDVRKFLDKEWAWVKELLAEHPAELAEVEAARAARLAELRVEVEAKVAA . Its measured apparent Kd (screen) is 0.49 nM

Further cases:
A76I (designed binder) MTLQELLREEALRRAEAEAFRYALELLAEKFPEQKEYLLDLAEEIESQIRSLSGVDVEDVRKFLDKEWAWVKELLIEHPAELAEVEAARAARLAELRAEVEAKVAA yielded apparent Kd (screen) of 0.653 nM
